Test system: pERK in A375 cells
experimental_details: In Cell Western (ICW) assay, pERK in A375 cells
Type: cell-based
experimental_conditions: Homo sapiens, A-375, 3 h treatment
Parameter: IC50. Scope: all listed entries.

Sample answers from the record:
| molecule | measured_on | assay_value |
| --- | --- | --- |
| Cc1cc(-c2nc(N3CCOCC3)c3nc(-c4cccc(NS(=O)(=O)CCCF)c4F)ccc3n2)cnc1N [Example 90] | pERK in A375 cells | 0.1 to 1 µM |
| Cc1nc(N)ncc1-c1nc(N2CCOCC2)c2nc(-c3cccc(NS(=O)(=O)CCCF)c3F)ccc2n1 [Example 109] | pERK in A375 cells | 0.001 to 0.1 µM |

What does the data say about its IC50? Entry: C[C@@H]1COCCN1c1nc(-c2cnc(N)nc2)nc2c(N3CCOCC3)cc(-c3cccc(NS(=O)(=O)CCCF)c3F)cc12 [Example 73]
0.001 to 0.1 µM

What does the data say about its IC50? Entry: Nc1ncc(-c2nc(N3CCOCC3)c3nc(-c4cccc(NS(=O)(=O)CCCF)c4F)ccc3n2)cn1 [Example 87]
0.1 to 1 µM

What does the data say about its IC50? Entry: CCOc1cc(-c2cccc(NS(=O)(=O)CCCF)c2F)cc2c(N3CCOC[C@H]3C)nc(-c3cnc(N)nc3)nc12 [Example 137]
0.001 to 0.1 µM

What does the data say about its IC50? Entry: COCCOc1cc(-c2cccc(NS(=O)(=O)CCCF)c2F)cc2c(N3CCOCC3)nc(-c3ccc(N)nc3)nc12 [Example 67]
0.1 to 1 µM

What does the data say about its IC50? Entry: CC(C)Oc1cc(-c2cccc(NS(=O)(=O)CCCF)c2F)cc2c(N3CCOC[C@H]3C)nc(-c3ccc(N)nc3)nc12 [Example 63]
0.001 to 0.1 µM

What does the data say about its IC50? Entry: COc1cc(-c2cccc(NS(=O)(=O)c3c(F)cccc3F)c2F)cc2c(N3CCOCC3)nc(-c3ccc(N)nc3)nc12 [Example 19]
0.1 to 1 µM

What does the data say about its IC50? Entry: COc1cc(-c2cccc(NS(=O)(=O)CCCF)c2F)cc2c(N3CCOC[C@H]3C)nc(-c3cnc(N)c(F)c3)nc12 [Example 134]
0.001 to 0.1 µM

What does the data say about its IC50? Entry: CNc1ccc(-c2nc(N3CCOCC3)c3cc(-c4cccc(NS(=O)(=O)CCCF)c4F)cc(OC)c3n2)cn1 [Example 50]
0.001 to 0.1 µM
